TARGET OF ASSAY: rhVAP-1 (Homo sapiens (Human))
Sequence (Q16853 whole entry): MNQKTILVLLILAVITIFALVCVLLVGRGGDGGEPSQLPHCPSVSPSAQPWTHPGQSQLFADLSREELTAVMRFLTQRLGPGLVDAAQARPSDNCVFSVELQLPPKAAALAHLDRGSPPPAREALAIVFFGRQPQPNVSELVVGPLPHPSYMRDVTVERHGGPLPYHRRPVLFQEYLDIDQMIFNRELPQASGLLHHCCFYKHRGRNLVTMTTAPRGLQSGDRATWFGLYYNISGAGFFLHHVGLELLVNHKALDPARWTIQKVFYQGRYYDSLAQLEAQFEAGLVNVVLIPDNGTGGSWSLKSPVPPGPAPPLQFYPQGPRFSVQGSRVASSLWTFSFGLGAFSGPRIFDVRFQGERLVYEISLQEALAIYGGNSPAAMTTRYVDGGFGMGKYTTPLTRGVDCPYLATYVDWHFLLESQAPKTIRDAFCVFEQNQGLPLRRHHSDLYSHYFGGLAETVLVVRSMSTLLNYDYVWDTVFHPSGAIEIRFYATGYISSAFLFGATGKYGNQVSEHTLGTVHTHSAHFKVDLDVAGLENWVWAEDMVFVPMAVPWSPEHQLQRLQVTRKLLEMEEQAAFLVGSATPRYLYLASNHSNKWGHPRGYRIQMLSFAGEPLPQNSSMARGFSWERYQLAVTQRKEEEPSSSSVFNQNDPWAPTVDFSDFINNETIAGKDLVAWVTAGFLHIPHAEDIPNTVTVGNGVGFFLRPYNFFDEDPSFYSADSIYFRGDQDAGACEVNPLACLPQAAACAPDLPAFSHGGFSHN
ASSAY COMMENT: VAP-1 fluorometric assay (Amplex Red/HRP, benzylamine substrate)
Type: biochemical
CONDITION: class symbols, ranges defined in μM
QUANTITY: IC50

Enquiry: Fill in the blank: the reported IC50 of NC/C(=C/F)COc1ccc2nc(NC3CCC(O)CC3)oc2c1 (centres unmarked) [Example 78] is ____.
Return: < 0.1 µM

Enquiry: Now this one: CC(C)(C)c1nc2ccc(OC/C(=C/F)CN)cc2o1 [Example 50, 4-methylbenzenesulfonate]
Return: < 0.1 µM

Enquiry: Now this one: CCCCc1nc2ccc(NC/C(=C/F)CN)cc2o1 [Example 17]
Return: < 0.1 µM

Enquiry: Now this one: Cc1cc(CNc2nc3ccc(OC/C(=C\F)CN)cc3o2)cc(C)n1 [Example 60, bis(4-methylbenzenesulfonate)]
Return: < 0.1 µM

Enquiry: Now this one: CNC(=O)C(Cc1ccccc1)Nc1nc2ccc(OC/C(=C\F)CN)cc2o1 (centres unmarked) [Example 56, 4-methylbenzenesulfonate]
Return: < 0.1 µM

Enquiry: Now this one: CC(C)(C)CCCc1nc2ccc(OC/C(=C/F)CN)cc2o1 [Example 51, 4-methylbenzenesulfonate]
Return: < 0.1 µM

Enquiry: Now this one: NC/C(=C\F)COc1ccc2nc(C3CCC(c4ccccc4)CC3)oc2c1 (centres unmarked) [Example 41, 4-methylbenzenesulfonate]
Return: < 0.1 µM

Enquiry: Now this one: CCCCc1nc2ccc(/C=C(/F)CN)cc2o1 [Example 95]
Return: 0.1 to 1 µM

Enquiry: Now this one: CCCCc1nc2ccc(C(=O)NC/C(=C/F)CN)cc2o1 [Example 40, 4-methylbenzenesulfonate]
Return: 0.1 to 1 µM

Enquiry: Now this one: NC/C(=C\F)COc1ccc2nc(NCCCO)sc2c1 [Example 88]
Return: < 0.1 µM

Enquiry: Now this one: CCCCc1nc2ccc(OC/C(=C/F)CN)cc2s1 [Example 3]
Return: < 0.1 µM

Enquiry: Now this one: CC1(C)CCC(c2nc3ccc(OC/C(=C/F)CN)cc3o2)CC1 [Example 36, 4-methylbenzenesulfonate]
Return: < 0.1 µM

Enquiry: Now this one: CCCCc1nc2ccc(OC/C(=C/F)CN)c(Br)c2s1 [Example 7]
Return: < 0.1 µM

Enquiry: Now this one: CC(C)(Nc1nc2ccc(OC/C(=C/F)CN)cc2o1)c1ccccc1 [Example 48, 4-methylbenzenesulfonate]
Return: < 0.1 µM

Enquiry: Now this one: NC/C(=C\F)COc1ccc2nc(NCc3ccc(C(F)(F)F)nc3)oc2c1 [Example 84, 4-methylbenzenesulfonate]
Return: < 0.1 µM

Enquiry: Now this one: CC(C)(C)Nc1nc2ccc(OC/C(=C/F)CN)cc2o1 [Example 39, 4-methylbenzenesulfonate]
Return: < 0.1 µM

Enquiry: Now this one: COc1ncccc1CNc1nc2ccc(OC/C(=C\F)CN)cc2o1 [Example 75, 4-methylbenzenesulfonate]
Return: < 0.1 µM

----------
TARGET OF ASSAY: UniProt P21397
Sequence (P21397 whole entry): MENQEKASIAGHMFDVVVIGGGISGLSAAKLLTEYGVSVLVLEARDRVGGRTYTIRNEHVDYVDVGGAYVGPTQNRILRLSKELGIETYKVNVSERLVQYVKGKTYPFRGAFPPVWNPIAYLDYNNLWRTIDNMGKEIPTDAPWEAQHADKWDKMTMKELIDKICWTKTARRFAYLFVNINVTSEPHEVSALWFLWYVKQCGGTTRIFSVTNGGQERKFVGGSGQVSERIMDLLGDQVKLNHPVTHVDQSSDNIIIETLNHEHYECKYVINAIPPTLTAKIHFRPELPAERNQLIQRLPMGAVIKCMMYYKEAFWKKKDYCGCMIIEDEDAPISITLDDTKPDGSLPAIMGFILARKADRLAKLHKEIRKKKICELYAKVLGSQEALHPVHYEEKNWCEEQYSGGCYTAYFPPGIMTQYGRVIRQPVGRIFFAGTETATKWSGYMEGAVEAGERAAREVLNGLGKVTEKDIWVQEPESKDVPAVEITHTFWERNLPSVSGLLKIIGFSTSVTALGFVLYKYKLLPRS
ASSAY COMMENT: MAO-Glo assay, MAO-A inhibition
Format: biochemical
CONDITION: bound printed in cell
QUANTITY: IC50

Enquiry: Fill in the blank: the reported IC50 of CNC(=O)[C@H](Cc1ccccc1)Nc1nc2ccc(OC/C(=C\F)CN)cc2o1 [Example 71, 4-methylbenzenesulfonate] is ____.
Return: > 50 µM

Enquiry: Now this one: CNC(=O)[C@@H](Cc1ccccc1)Nc1nc2ccc(OC/C(=C\F)CN)cc2o1 [Example 80, 4-methylbenzenesulfonate]
Return: > 40 µM

Enquiry: Now this one: Cc1cc(CNc2nc3ccc(OC/C(=C\F)CN)cc3o2)cc(C)n1 [Example 60, bis(4-methylbenzenesulfonate)]
Return: > 50 µM

Enquiry: Now this one: CCCCn1cnc2cc(OC/C(=C/F)CN)ccc21 [Example 89, 4-methylbenzenesulfonate]
Return: > 50 µM
